- System: HUVEC
- protocol.description: Antiproliferative activity against HUVEC after 48 hrs by MTT assay
- Format: functional, cell-based
- assay.setup: Homo sapiens
parameter: IC50 (µM)
Provide only the numeric value, understood in µM.

Enquiry: Reported IC50 for `C[C@]12C[C@@H](OC(=O)c3ccc(NC(=O)CN4CCCC4)cc3)[C@@H]3c4ccc(O)cc4CC[C@H]3[C@@H]1CC[C@@H]2O` : what is it?
Return: 36.1

Enquiry: I would be grateful if you could share the reported IC50 for `COc1cc2c(cc1OC)[C@@H]1[C@@H](CC2)[C@@H]2CC[C@H](OC)[C@@]2(C)C[C@H]1OC(=O)c1ccc(NC(=O)CN2CCCC2)cc1` .
Return: 2.63

Enquiry: Bench note: what IC50 did `COc1ccc2c(c1)CC[C@@H]1[C@@H]2[C@H](OC(=O)c2ccc(NC(=O)CN3CCN(C)CC3)cc2)C[C@]2(C)[C@@H](OC)CC[C@@H]12` show?
Return: 5.88

* * *

- Test system: Ishikawa
- protocol.description: Antiproliferative activity against human Ishikawa cells after 48 hrs by MTT assay
- Format: functional, cell-based
Give measured pIC50 for each item. Keep answers brief.
Value format note: pIC50 is -log10 of concentration (mol/L); just state the number.

Enquiry: Please give the measured pIC50 for this compound: `COc1ccc2c(c1)CC[C@@H]1[C@@H]2[C@H](OC(=O)c2ccc(NC(=O)CN3CCN(C)CC3)cc2)C[C@]2(C)[C@@H](OC)CC[C@@H]12`
Return: 5.12

Enquiry: Suppose we examine the compound `CN1CCN(CC(=O)Nc2ccc(C(=O)O[C@@H]3C[C@]4(C)[C@@H](O)CC[C@H]4[C@@H]4CCc5cc(O)ccc5[C@H]43)cc2)CC1` ; what pIC50 value has been reported?
Return: 5.02

Enquiry: Using the record for `COc1cc2c(cc1OC)[C@@H]1[C@@H](CC2)[C@@H]2CC[C@H](OC)[C@@]2(C)C[C@H]1OC(=O)c1ccc(NC(=O)CN(C)C)cc1` , report its pIC50.
Return: 5.20

Enquiry: I am curious: what pIC50 value has been reported for `COCOc1ccc2c(c1)CC[C@@H]1[C@@H]2[C@H](OC(=O)c2ccc(NC(=O)CN(C)C)cc2)C[C@]2(C)[C@@H](OCOC)CC[C@@H]12` ?
Return: 4.55

Enquiry: Can you look up the measured pIC50 of `C[C@]12C[C@@H](OC(=O)c3ccc(NC(=O)CN4CCCC4)cc3)[C@@H]3c4ccc(O)cc4CC[C@H]3[C@@H]1CC[C@@H]2O` for me?
Return: 4.76

Enquiry: Looking for the measured pIC50 of `COc1cc2c(cc1OC)[C@@H]1[C@@H](CC2)[C@@H]2CC[C@H](OC)[C@@]2(C)C[C@H]1OC(=O)c1ccc(NC(=O)CN2CCN(C)CC2)cc1` , can you help?
Return: 5.26

* * *

- Test system: HUVEC
- protocol.description: Antiproliferative activity against HUVEC after 48 hrs by MTT assay
- Assay type: functional, cell-based
- assay.setup: Homo sapiens
Exercise: for every item that follows, state its recorded IC50.
Answer with the value and then the unit.

Enquiry: So what IC50 did `CN(C)CC(=O)Nc1ccc(C(=O)O[C@@H]2C[C@]3(C)[C@@H](O)CC[C@H]3[C@@H]3CCc4cc(O)ccc4[C@H]32)cc1` get with HUVEC?
Return: 32 µM

Enquiry: Write down the reported IC50 of `COCOc1ccc2c(c1)CC[C@@H]1[C@@H]2[C@H](OC(=O)c2ccc(NC(=O)CN3CCN(C)CC3)cc2)C[C@]2(C)[C@@H](OCOC)CC[C@@H]12` , test system: HUVEC.
Return: 5.23 µM

Enquiry: Report IC50 for `COc1ccc2c(c1)CC[C@@H]1[C@@H]2[C@H](OC(=O)c2ccc(NC(=O)CN3CCCC3)cc2)C[C@]2(C)[C@@H](OC)CC[C@@H]12` tested on HUVEC.
Return: 3.69 µM
